target: MAST1, Q9Y2H9; assay: holdup assay; parameters: key: below the threshold = too weak to quantify, mostly under pKd 3.1 to 4; conditions: plain residues with an end cap or a label only (N-terminal biotin on a linker: ado-ado)
Sequence (Q9Y2H9 962-1065): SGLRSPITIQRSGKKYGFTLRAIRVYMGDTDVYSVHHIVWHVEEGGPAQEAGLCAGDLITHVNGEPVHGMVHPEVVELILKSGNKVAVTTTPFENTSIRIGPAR
Where pKd equals or exceeds 4, the correct label is rule met; where it does not, the label is rule not met.

Binder	Group label
MQILSKPEFI [NPSR1, Q6W5P4]	rule not met
GTMFLRETSL [GUCY1A2, P33402]	rule met
STYCDYTIEI [FAM71C, Q8NEG0]	rule met

[ask] Could you verify whether the entry FVFESRKEIL [TBPL1, P62380] shows pKd of no less than 4?
[reply] rule met

[ask] Please tell me: is the binder IQISELETNV [SLC1A7, O00341] at or over 4 in terms of pKd?
[reply] rule met

[ask] Determine whether measured pKd meets or exceeds 4 for EPAKETTTNV [SLC2A3, P11169]
[reply] rule met
